So I've got a bunch of variants here, and I need their abundance fitness values.
B1: Storkhead-box protein 2, residues 64 to 141; numbered along this chain, Q9P2F5 (parent)
chain: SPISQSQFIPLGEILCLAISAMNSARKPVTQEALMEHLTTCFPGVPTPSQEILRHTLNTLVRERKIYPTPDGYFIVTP

Variants of: B1
protocol_description: abundance fitness (aPCA) (normalised: wild type 0, dead -1); higher = more abundant; growth selection in yeast, the domain comes from the species named
applied_conditions: Homo sapiens
Answers are plain numbers.

sequence_chain | abundance fitness
SPISQSPFIPLGEILCLAISAMNSARKPVTQEALMEHLTTCFPGVPTPSQEILRHTLNTLVRERKIYPTPDGYFIVTP | -0.021
SPISQSQFIPLGEILCLAISAMNSARKPVTQEALMEHLTTCFPGVPTPSNEILRHTLNTLVRERKIYPTPDGYFIVTP | -0.08
SPISQSQFIPLGEILCLAISAMNSARKPVTQEALMEHLTTCFPGVPTPSQEILRHTLNTLVRERKIYATPDGYFIVTP | 0.065
SPISQSQFIPLGEILCLAISAMNSARKPVTQEALMEHLTTCFPGVPTPSQEILRHTLNTLVRERKIYPTPDGYFIVTG | -0.239
SPISQSQFIPLGEILCLAISAMNSARKPVTQEALMEHLTTCFPGVPTPSQGILRHTLNTLVRERKIYPTPDGYFIVTP | -0.1
SPHSQSQFIPLGEILCLAISAMNSARKPVTQEALMEHLTTCFPGVPTPSQEILRHTLNTLVRERKIYPTPDGYFIVTP | -0.017

The following variants each have a reported value; give each one's abundance fitness.
1. SPISQSQFIPLGEILCLAISAMNSARKPVTQEALMEHLTMCFPGVPTPSQEILRHTLNTLVRERKIYPTPDGYFIVTP
2. SPISQSQFIPLGEELCLAISAMNSARKPVTQEALMEHLTTCFPGVPTPSQEILRHTLNTLVRERKIYPTPDGYFIVTP

[reply]
-0.104
-0.089

The following variants each have a reported value; give each one's abundance fitness.
1. SPISQSQFIPLVEILCLAISAMNSARKPVTQEALMEHLTTCFPGVPTPSQEILRHTLNTLVRERKIYPTPDGYFIVTP
2. SPISQSQFIPLGEILCLAISAMNSARKPVTQEALMEHLTTCFPGVPTPSQETLRHTLNTLVRERKIYPTPDGYFIVTP

[reply]
-0.452
0.025

The following variants each have a reported value; give each one's abundance fitness.
1. SPISQSQFVPLGEILCLAISAMNSARKPVTQEALMEHLTTCFPGVPTPSQEILRHTLNTLVRERKIYPTPDGYFIVTP
2. SPISQSQFIPLGEILCLAISAMNSARKPVTQEALMKHLTTCFPGVPTPSQEILRHTLNTLVRERKIYPTPDGYFIVTP
3. SPISQSQFIPLGEILCLAISAMNSARKPVTQEALMEHLTTCFPGVPTPSQEILRHTLNTLVRERKIYPTPDGYFIVSP
4. SPISQSQFIPLGEILCLAISAMNSARKPVTQEALMEHLTTCFPHVPTPSQEILRHTLNTLVRERKIYPTPDGYFIVTP

[reply]
1. 0.011
2. -0.008
3. 0.024
4. -0.023

The following variants each have a reported value; give each one's abundance fitness.
1. SPISQTQFIPLGEILCLAISAMNSARKPVTQEALMEHLTTCFPGVPTPSQEILRHTLNTLVRERKIYPTPDGYFIVTP
2. SPISQSQFIPLGEILCLAISKMNSARKPVTQEALMEHLTTCFPGVPTPSQEILRHTLNTLVRERKIYPTPDGYFIVTP
3. SPISQSQFIPLGEILCWAISAMNSARKPVTQEALMEHLTTCFPGVPTPSQEILRHTLNTLVRERKIYPTPDGYFIVTP

[reply]
1: -0.079; 2: 0.051; 3: -0.129
